- TEST PROTOCOL: chemical genetic growth profiling, strain panel (AID 1159580);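 note: tested at 20 µM; growth read once vehicle control cultures reached saturation at 30 °C; 1 = growth at the plate median or of vehicle wells; lower values mean less growth of the strain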
- EXPERIMENTAL CONTEXT: S. cerevisiae deletion strains, growth OD, locus YPL240C, strain hsp82
In all, about 5,500 compounds went through this assay and about 2,000 (36%) were called active. Not shown: some 18% with an inconclusive outcome. Cut-off read from the data, not from the text of the source: active = normalized growth mostly below about 0.91 (no sharp cut-off); inconclusive = no clear call, values can overlap the other calls; inactive = mostly above about 0.92. This is one part of the list.
The reply should be one of these categories: yes (1) = active, no (0) = inactive

Completed entries (count: 6):
MOLECULE: COc1ccc2c(c1)OCc1c-2oc2cc(OC)ccc12
ASSIGNED LABEL: yes (1)
--
MOLECULE: C=C(C)C1CNC(C(=O)O)C1CC(=O)O (stereo not drawn)
ASSIGNED LABEL: no (0)
--
MOLECULE: CC(=O)OCC(=O)[C@@]1(O)CCC2C3CCC4=CC(=O)CC[C@]4(C)C3C(=O)C[C@@]21C (stereo partly drawn)
ASSIGNED LABEL: no (0)
--
MOLECULE: CCC(=O)O[C@H]1[C@H](O[C@@H]2[C@@H](C)[C@H](O[C@H]3C[C@@](C)(OC)[C@@H](O)[C@H](C)O3)[C@@H](C)C(=O)O[C@H](CC)[C@@](C)(O)[C@H](O)[C@@H](C)C(=O)[C@H](C)C[C@@]2(C)O)O[C@H](C)C[C@@H]1N(C)C
ASSIGNED LABEL: yes (1)
--
MOLECULE: N=c1ccn2c(n1)O[C@@H]1C2O[C@H](CO)[C@H]1O (stereo partly drawn)
ASSIGNED LABEL: no (0)
--
MOLECULE: COCCc1ccc(OCC(O)CNC(C)C)cc1 (stereo not drawn)
ASSIGNED LABEL: no (0)

Q: Which outcome was assigned to NCC1CCC(C(=O)O)CC1 (stereo not drawn) in this test?
Ans: no (0)

Q: Now consider COc1ccc2c(C)cc(=O)oc2c1 and answer again.
Ans: no (0)

The reported measurements were obtained from PubChem BioAssay AID1159580.
